Provenance of the data: ChEMBL document CHEMBL4513216

Assay: Toxicity liver stage against HepG2, at 10uM
Assay type: cell-based
Design: test concentration 10 uM, cell line HepG2-A16-CD81EGFP
Settings: human, HepG2-A16-CD81EGFP cells; read-out: INHIBITION

[
  {
    "molecule": "Oc1cc(C2CCCCN2Cc2cccs2)nc(-c2ccncc2)n1 (stereo unspecified)",
    "cytotoxicity at 10 µM": "7.78%"
  },
  {
    "molecule": "O=C(CCn1ncc2c(Cl)cccc21)NCCCn1cccn1",
    "cytotoxicity at 10 µM": "6.25%"
  },
  {
    "molecule": "c1ccc(Cc2noc(CN3CCCC(Cn4cncn4)C3)n2)cc1 (stereo unspecified)",
    "cytotoxicity at 10 µM": "-2.38%"
  },
  {
    "molecule": "CN(Cc1noc(C(C)(C)C)n1)CC1CCN(CCO)CC1",
    "cytotoxicity at 10 µM": "7.17%"
  },
  {
    "molecule": "Cc1nnc(C(C)N2CCN(Cc3noc(C(C)(C)C)n3)CC2)o1 (stereo unspecified)",
    "cytotoxicity at 10 µM": "-13.3%"
  },
  {
    "molecule": "Cc1ccsc1-c1cc(C(=O)O)cc(S(=O)(=O)NCc2ccccn2)c1",
    "cytotoxicity at 10 µM": "-63.8%"
  },
  {
    "molecule": "Cn1c(=O)[nH]c2cc(C(=O)OCC(F)F)ccc21",
    "cytotoxicity at 10 µM": "-17.3%"
  },
  {
    "molecule": "CN1CCC(Cc2cncc(-c3ccccc3C(=O)O)n2)C1 (stereo unspecified)",
    "cytotoxicity at 10 µM": "-7.19%"
  },
  {
    "molecule": "COc1ccc(-n2nnc(C(N)=O)n2)cc1",
    "cytotoxicity at 10 µM": "8.13%"
  },
  {
    "molecule": "Cc1cnc(N2C[C@@H]3CCN(CC4CC4)C(=O)[C@H]3C2)nc1",
    "cytotoxicity at 10 µM": "3.47%"
  },
  {
    "molecule": "COc1ccc2c(c1)CC(C(=O)N(C)CCCc1cnn(C)c1)CO2 (stereo unspecified)",
    "cytotoxicity at 10 µM": "-7.55%"
  },
  {
    "molecule": "CCc1ccc(CCC(=O)N2CCOCC2c2ncon2)cc1 (stereo unspecified)",
    "cytotoxicity at 10 µM": "-3.78%"
  },
  {
    "molecule": "CC(C)(C)n1ncc2c1CCCC2NCc1cccc2c1OCO2 (stereo unspecified)",
    "cytotoxicity at 10 µM": "3.37%"
  },
  {
    "molecule": "O=C1OC2(CCNCC2)CN1CC(=O)N1CCCC1c1nccs1 (stereo unspecified)",
    "cytotoxicity at 10 µM": "-4.92%"
  },
  {
    "molecule": "CCS(=O)(=O)Nc1ccn(Cc2cccc(Cl)c2)n1",
    "cytotoxicity at 10 µM": "-4.49%"
  },
  {
    "molecule": "Cc1ccc(F)c(C(=O)Nc2cccc(CCN3CCCC3)c2)c1",
    "cytotoxicity at 10 µM": "0.0833%"
  },
  {
    "molecule": "CNS(=O)(=O)c1ccc(C(=O)N2CCCC2c2cnn(C)c2)o1 (stereo unspecified)",
    "cytotoxicity at 10 µM": "-8.28%"
  },
  {
    "molecule": "Cc1ccc(C(=O)N2CC[C@@]3(O)CCN(C(=O)N(C)C)C[C@H]3C2)cc1Cl",
    "cytotoxicity at 10 µM": "-45.5%"
  },
  {
    "molecule": "O[C@@H]1CC(CNCc2cccc(Cl)c2)(COc2cccnc2)C[C@@H]1O (stereo partly specified)",
    "cytotoxicity at 10 µM": "-1.29%"
  },
  {
    "molecule": "Cc1cnn(CCNCCCOc2ccc3c(c2)OCO3)c1",
    "cytotoxicity at 10 µM": "-3.6%"
  },
  {
    "molecule": "COC(=O)CC1CCN(C(=O)c2ccc(-n3nnnc3C)cc2)CC1",
    "cytotoxicity at 10 µM": "-6.72%"
  },
  {
    "molecule": "N#Cc1ccc(OC[C@]23COC[C@H]2CN(Cc2ccccn2)C3)nc1",
    "cytotoxicity at 10 µM": "-0.182%"
  },
  {
    "molecule": "COC1CCN(c2cc(C(C)C)nc3ccnn23)C1 (stereo unspecified)",
    "cytotoxicity at 10 µM": "0.343%"
  },
  {
    "molecule": "Cc1ccc2nc(C3CCCN(CC(C)C)C3)nc(O)c2c1 (stereo unspecified)",
    "cytotoxicity at 10 µM": "5.48%"
  },
  {
    "molecule": "COc1cc2c(nn1)CCN(Cc1nnc(Cc3ccccc3)o1)C2",
    "cytotoxicity at 10 µM": "4.25%"
  },
  {
    "molecule": "CCc1cc(C(=O)N2CCCn3nc(CCC(=O)O)cc3C2)cs1",
    "cytotoxicity at 10 µM": "-3.32%"
  },
  {
    "molecule": "C[C@@H](O)CNc1c(NCc2ccco2)c(=O)c1=O",
    "cytotoxicity at 10 µM": "-7.58%"
  },
  {
    "molecule": "Cn1ccc(C(=O)N2CCN(c3cc(C#N)ccn3)CC2)cc1=O",
    "cytotoxicity at 10 µM": "-14.2%"
  },
  {
    "molecule": "Cn1cc(C[C@H]2[C@H](O)CCN2CC2CCOCC2)cn1",
    "cytotoxicity at 10 µM": "-65.7%"
  },
  {
    "molecule": "CCCS(=O)(=O)N1CC(=O)N(Cc2ccccc2OC)CC(O)C1 (stereo unspecified)",
    "cytotoxicity at 10 µM": "-7.44%"
  },
  {
    "molecule": "COc1ccc(CCCNCc2c(C)nn(C)c2N(C)C)cc1OC",
    "cytotoxicity at 10 µM": "-19.2%"
  },
  {
    "molecule": "NC(=O)C1=NC2=NS(=O)(=O)c3ccccc3N2N1Cc1ccc(Cl)cc1",
    "cytotoxicity at 10 µM": "1.75%"
  },
  {
    "molecule": "c1cnnc(N2CCCC2CNCc2nnc(C3CC3)o2)c1 (stereo unspecified)",
    "cytotoxicity at 10 µM": "1.41%"
  },
  {
    "molecule": "Cc1nnc2ccc(N3CCC4(CCOC4)C3)nn12 (stereo unspecified)",
    "cytotoxicity at 10 µM": "4.29%"
  },
  {
    "molecule": "CN(Cc1cccs1)C(=O)Cn1cc(NC(=O)C(C)(C)C)cn1",
    "cytotoxicity at 10 µM": "-3.52%"
  },
  {
    "molecule": "CCOCCn1nc(C)cc1C(=O)N1CC[C@](C)(O)C(C)(C)C1",
    "cytotoxicity at 10 µM": "0.429%"
  },
  {
    "molecule": "CNC(=O)CN(C)C(=O)c1ccc(-c2nc(C)cs2)cc1",
    "cytotoxicity at 10 µM": "-7.77%"
  },
  {
    "molecule": "CC(C(=O)N1CCc2ccccc21)N1CCc2cncnc2C1 (stereo unspecified)",
    "cytotoxicity at 10 µM": "0.693%"
  },
  {
    "molecule": "COc1ccc(-c2ccnc3nc(N4CCCCC4)[nH]c(=O)c23)cc1",
    "cytotoxicity at 10 µM": "5.31%"
  },
  {
    "molecule": "CN(CC(=O)N1CCOC(CCc2ccccc2)C1)Cc1ccccn1 (stereo unspecified)",
    "cytotoxicity at 10 µM": "-1.83%"
  },
  {
    "molecule": "CC(C)c1nc(O)c2nnn(C[C@@H]3CCCN(Cc4cccs4)C3)c2n1",
    "cytotoxicity at 10 µM": "1.76%"
  },
  {
    "molecule": "Cc1noc([C@H]2C[C@H]3OCC[C@H]3N(Cc3ccc(F)cc3)C2)n1",
    "cytotoxicity at 10 µM": "-76.4%"
  },
  {
    "molecule": "CC(C)NC(=O)c1ccc2c(c1)nc1n2CCN(Cc2ccccc2)C1",
    "cytotoxicity at 10 µM": "6.61%"
  },
  {
    "molecule": "O=C(Nc1nc(-c2ccccc2)ns1)N1CCN(C(=O)C2CC2)CC1",
    "cytotoxicity at 10 µM": "-150%"
  },
  {
    "molecule": "COC(C)(C)CNC(=O)N(C)Cc1nc(-c2ccccc2)c[nH]1",
    "cytotoxicity at 10 µM": "8.07%"
  },
  {
    "molecule": "Cn1cnc2c1C(COCC1CCOCC1)CN(C(=O)C1CC=CC1)C2 (stereo unspecified)",
    "cytotoxicity at 10 µM": "-75.5%"
  }
]
